Measured values drawn from paper PMC5820653 for this set.

System: Ste2p mutant receptor Cys2K2 (Saccharomyces cerevisiae, UniProt D6VTK4, M218K/M54I/Q272Y)
Construct: expressed in transfected cells; host or cells: S. cerevisiae yJB013 (ste2-deleted reporter strain), p416GPD plasmid
Experiment Description: cell-based
Ends that are not written are not given here.
Entries and their measured pEC50 follow.
Bear in mind: pEC50 is minus log10 of a mol/L concentration; give just that figure.

ALALKPGEPMY [Cys2]: 6.50

// next item, pEC50 requested
GET /values?readout=pEC50&system=Ste2p mutant receptor Cys2K2 (Saccharomyces cerevisiae, UniProt D6VTK4, M218K/M54I/Q272Y)&item= ALDFAVGEPMK-NH2 [Cys5 amidated]
4.09

###

System: Ste2p mutant receptor Cys1H4 (M54I) (Saccharomyces cerevisiae, UniProt D6VTK4, M54I)
Construct: expressed in transfected cells; host or cells: S. cerevisiae yJB013 (ste2-deleted reporter strain), p416GPD plasmid
Sequence (D6VTK4 whole entry M54I): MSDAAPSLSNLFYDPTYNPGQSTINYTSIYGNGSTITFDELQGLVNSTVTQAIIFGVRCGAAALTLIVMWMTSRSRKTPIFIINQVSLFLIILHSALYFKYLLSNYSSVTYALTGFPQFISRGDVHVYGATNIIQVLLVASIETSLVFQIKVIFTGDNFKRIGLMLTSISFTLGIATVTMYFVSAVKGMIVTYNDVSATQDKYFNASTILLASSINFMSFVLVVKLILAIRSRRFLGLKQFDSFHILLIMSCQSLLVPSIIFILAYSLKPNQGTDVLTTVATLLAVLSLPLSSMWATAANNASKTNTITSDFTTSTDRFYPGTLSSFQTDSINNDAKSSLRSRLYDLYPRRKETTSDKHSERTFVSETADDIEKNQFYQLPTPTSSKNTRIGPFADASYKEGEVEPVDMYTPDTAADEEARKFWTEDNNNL
Experiment Description: cell-based
Assay type: cell-based
Ends that are not written are not given here.
Property: EC50 (µM)
Reply numerically in µM, unit not repeated.

HALALKPGEPMY [Cys1]: 0.141

// next item, EC50 requested
Fill in: EC50 of ALDFAVGEPMK-NH2 [Cys5 amidated] is ___
158

###

System: Ste2p mutant receptor Cys5R2 (Saccharomyces cerevisiae, UniProt D6VTK4, F55L/K225T/M218T/M54I/N158Y/R74K/Y26F)
Construct: expressed in transfected cells; host or cells: S. cerevisiae yJB013 (ste2-deleted reporter strain), p416GPD plasmid
Sequence (D6VTK4 1-319 Y26F/M54I/F55L/R74K/N158Y/M218T/K225T): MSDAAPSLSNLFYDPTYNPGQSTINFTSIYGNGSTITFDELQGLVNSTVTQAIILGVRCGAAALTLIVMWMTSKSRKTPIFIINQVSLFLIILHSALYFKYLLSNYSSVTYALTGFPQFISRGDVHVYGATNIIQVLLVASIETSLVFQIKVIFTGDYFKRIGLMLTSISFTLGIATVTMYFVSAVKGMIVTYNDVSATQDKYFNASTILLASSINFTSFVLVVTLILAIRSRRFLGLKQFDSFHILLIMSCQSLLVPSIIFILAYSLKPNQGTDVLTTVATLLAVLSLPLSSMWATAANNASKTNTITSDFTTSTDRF
Experiment Description: cell-based
Ends that are not written are not given here.
Property: EC50 (µM)
Reply numerically in µM, unit not repeated.

Fill in: EC50 of ALDFAVGEPMK-NH2 [Cys5 amidated] is ___
4.9

###

System: Ste2p mutant receptor Cys5R9 (Saccharomyces cerevisiae, UniProt D6VTK4, K225T/L228F/M218T/M54I/N158F/R74K/S121R/T167R/Y26F)
Construct: expressed in transfected cells; host or cells: S. cerevisiae yJB013 (ste2-deleted reporter strain), p416GPD plasmid
Sequence (D6VTK4 1-319 Y26F/M54I/R74K/S121R/N158F/T167R/M218T/K225T/L228F): as the sequence (D6VTK4 1-319 Y26F/M54I/F55L/R74K/N158Y/M218T/K225T) above, with L55F, S121R, Y158F, T167R, L228F counted along it
Experiment Description: cell-based
Ends that are not written are not given here.
Property: EC50

Fill in: EC50 of ALDFAVGEPMK-NH2 [Cys5 amidated] is ___
3.47 µM

###

System: Ste2p mutant receptor Cys5R7 (Saccharomyces cerevisiae, UniProt D6VTK4, D3N/K225T/L228F/M218T/M54I/N158Y)
Construct: expressed in transfected cells; host or cells: S. cerevisiae yJB013 (ste2-deleted reporter strain), p416GPD plasmid
Sequence (D6VTK4 other isoform, or with tags, fused parts or gaps D3N/M54I/N158Y/M218T/K225T/L228F): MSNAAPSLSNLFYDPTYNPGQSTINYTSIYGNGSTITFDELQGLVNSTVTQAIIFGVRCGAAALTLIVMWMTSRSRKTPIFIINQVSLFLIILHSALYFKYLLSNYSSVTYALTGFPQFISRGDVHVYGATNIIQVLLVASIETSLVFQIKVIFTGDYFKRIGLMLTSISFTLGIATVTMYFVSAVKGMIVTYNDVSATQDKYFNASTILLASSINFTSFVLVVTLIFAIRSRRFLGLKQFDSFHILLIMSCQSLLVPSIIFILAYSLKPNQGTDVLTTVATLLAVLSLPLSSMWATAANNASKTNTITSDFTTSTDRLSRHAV
Experiment Description: cell-based
Ends that are not written are not given here.
Property: pEC50
Bear in mind: pEC50 is minus log10 of a mol/L concentration; give just that figure.

Fill in: pEC50 of ALDFAVGEPMK-NH2 [Cys5 amidated] is ___
5.57
